Target: human sphingosine-1-phosphate receptor 1 (S1P1) (Homo sapiens)
Sequence (P21453 whole entry): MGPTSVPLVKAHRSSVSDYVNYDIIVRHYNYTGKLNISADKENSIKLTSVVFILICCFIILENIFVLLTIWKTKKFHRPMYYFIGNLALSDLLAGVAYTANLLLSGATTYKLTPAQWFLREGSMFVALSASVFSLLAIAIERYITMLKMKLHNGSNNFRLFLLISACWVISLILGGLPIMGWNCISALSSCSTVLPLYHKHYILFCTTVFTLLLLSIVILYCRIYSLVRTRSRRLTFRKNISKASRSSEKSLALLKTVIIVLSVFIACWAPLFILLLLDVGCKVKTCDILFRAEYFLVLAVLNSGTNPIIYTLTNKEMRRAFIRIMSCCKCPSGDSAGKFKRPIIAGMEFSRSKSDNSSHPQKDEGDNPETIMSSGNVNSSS
Test: Inhibition of cAMP production (HTRF cAMP HiRange), S1P1 CHO-K1 cells
Type: cell-based
Details: inhibition of cAMP production, S1P1; read-out: hS1P1 CAMP pEC50 (converted)

COMPOUND: CCC1(CC)CC(=O)c2cc(-c3nc(-c4cccnn4)no3)ccc2O1 [Compound 621]
EC50: > 0.316 µM
--
COMPOUND: CC(C)n1nnc2cc(-c3noc(-c4ccccc4N)n3)ccc21 [Compound 576]
EC50: < 0.316 µM
--
COMPOUND: CCCCC1CC(=O)c2ccc(-c3nc(-c4cccnc4)no3)cc2O1 (stereo not drawn) [Compound 633]
EC50: > 0.316 µM
--
COMPOUND: Cc1cccc2oc(-c3ccc4c(c3)nnn4CC(C)C)nc12 [Compound 447]
EC50: < 0.316 µM
--
COMPOUND: CCC1(CC)C/C(=N/O)c2cc(-c3nc(-c4cccnc4)no3)ccc2O1 [Compound 430]
EC50: > 0.316 µM
--
COMPOUND: COc1ccncc1-c1nc(-c2ccc3c(c2)nnn3C(C)C)no1 [Compound 605]
EC50: < 0.316 µM
--
COMPOUND: COc1cccc2oc(-c3ccc4c(c3)nnn4C(C)C)nc12 [Compound 424]
EC50: < 0.316 µM
--
COMPOUND: CC(C)n1nnc2cc(-c3nc(-c4ccc5nc[nH]c5c4)no3)ccc21 [Compound 511]
EC50: < 0.316 µM
--
COMPOUND: CCC1(CC)CC(=O)c2cc(-c3noc(-c4ccc(NC(C)C)c(C#N)c4)n3)ccc2O1 [Compound 443]
EC50: < 0.316 µM
